Sourced from patent US20100144733A1

tgt: CHO-CFTR cell line (Homo sapiens, UniProt P13569)
Construct: expressed in transfected cells; host or cells: CHO (CHO-CFTR cell line)
Sequence (P13569 whole entry): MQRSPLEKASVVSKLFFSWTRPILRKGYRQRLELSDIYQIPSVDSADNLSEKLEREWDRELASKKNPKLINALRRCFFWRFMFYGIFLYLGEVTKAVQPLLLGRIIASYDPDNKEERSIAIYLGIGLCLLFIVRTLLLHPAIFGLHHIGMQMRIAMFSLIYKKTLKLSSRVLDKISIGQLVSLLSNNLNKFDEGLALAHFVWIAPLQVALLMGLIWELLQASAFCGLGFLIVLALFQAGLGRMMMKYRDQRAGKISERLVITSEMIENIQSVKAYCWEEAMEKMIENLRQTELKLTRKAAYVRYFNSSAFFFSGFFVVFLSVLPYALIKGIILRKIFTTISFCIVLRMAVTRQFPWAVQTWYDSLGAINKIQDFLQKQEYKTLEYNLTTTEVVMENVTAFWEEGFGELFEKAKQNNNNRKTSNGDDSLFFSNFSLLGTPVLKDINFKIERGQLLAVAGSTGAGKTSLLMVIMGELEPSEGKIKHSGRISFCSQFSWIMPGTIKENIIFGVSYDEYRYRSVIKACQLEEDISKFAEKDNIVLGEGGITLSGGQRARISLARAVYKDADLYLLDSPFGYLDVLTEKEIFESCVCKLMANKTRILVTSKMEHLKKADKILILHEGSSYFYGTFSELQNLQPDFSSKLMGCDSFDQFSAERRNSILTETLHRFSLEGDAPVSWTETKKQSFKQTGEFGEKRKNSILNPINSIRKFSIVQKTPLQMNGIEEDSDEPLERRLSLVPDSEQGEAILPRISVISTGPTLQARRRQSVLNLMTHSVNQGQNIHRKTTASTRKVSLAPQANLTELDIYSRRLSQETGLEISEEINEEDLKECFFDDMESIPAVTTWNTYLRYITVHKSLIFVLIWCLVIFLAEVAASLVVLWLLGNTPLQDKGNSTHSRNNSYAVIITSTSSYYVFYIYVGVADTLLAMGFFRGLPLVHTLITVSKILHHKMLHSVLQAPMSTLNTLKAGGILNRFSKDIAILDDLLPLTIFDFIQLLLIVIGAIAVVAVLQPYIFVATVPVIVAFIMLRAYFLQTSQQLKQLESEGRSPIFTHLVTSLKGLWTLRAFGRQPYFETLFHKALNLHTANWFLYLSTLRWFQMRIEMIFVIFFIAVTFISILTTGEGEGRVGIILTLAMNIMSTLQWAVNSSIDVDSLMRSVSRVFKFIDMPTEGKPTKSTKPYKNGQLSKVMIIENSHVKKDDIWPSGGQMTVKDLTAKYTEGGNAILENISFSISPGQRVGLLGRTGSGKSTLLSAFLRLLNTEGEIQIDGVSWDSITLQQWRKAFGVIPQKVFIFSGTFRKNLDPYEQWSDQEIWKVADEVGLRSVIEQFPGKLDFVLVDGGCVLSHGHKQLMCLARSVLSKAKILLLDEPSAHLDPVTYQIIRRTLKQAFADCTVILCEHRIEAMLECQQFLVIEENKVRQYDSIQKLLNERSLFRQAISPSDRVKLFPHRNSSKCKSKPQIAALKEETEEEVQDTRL
assay name: CHO-CFTR assay (FLIPR assay, same conditions as the T84 assay)
Format: cell-based
measurement conditions: imidazole and triazole-containing compounds
measured parameter: IC50
Respond with a number, then the unit of measure.

input: GET /values?readout=IC50&item= O=C(c1ncn(-c2cc(Cl)c(O)c(Cl)c2)n1)N(Cc1ccccc1)Cc1ccc(Cl)c(Cl)c1 [83i]
output: 14.3 µM

input: GET /values?readout=IC50&item= CC(C)c1ccc(CC(NC(=O)c2ncn(-c3cc(Cl)c(O)c(Cl)c3)n2)C(=O)C(C)(C)C)cc1 (centres unmarked) [134i]
output: 8.6 µM

input: GET /values?readout=IC50&item= C=CCN(Cc1ccc(C(C)(C)C)cc1)C(=O)c1ncn(-c2cc(Cl)c(O)c(Cl)c2)n1 [51i]
output: 5.13 µM
